Test: gradient 5% acetonitrile 3 min, to 50% in 2 min, to 85% in 15 min, held 3 min, 100 µL/min
Details: column: Zorbax Extend-C18 2.1 x 50 mm; eluents: water / acetonitrile, 0.1% formic acid
measurementType: RP-LC retention time (s)

Use these answered entries as a reference point.
Quick one: RP-LC retention time for COC(=O)c1ccccc1Nc1c(-c2cccc(O)c2)nc2cnccn12 ?
792

Would you mind doing Cc1cccc(NS(=O)(=O)c2c(C)sc(C)c2-c2n[nH]c(C)c2C)c1 as well?
1040

I. O=C(c1c(F)cccc1Cl)N1CCN(c2ccc3nnc(-c4ccco4)n3n2)CC1
II. CCOc1cccc(C(=O)Nc2nc(-c3ccc(C(C)(C)C)cc3)cs2)c1
When their RP-LC retention time values are compared, which is larger, I or II ? Answer by stating the label of the chosen item.
II
(II: 1430 s, I: 680 s)
